Ref: PubChem BioAssay AID635

protocolText: growth inhibition of wild-type E. coli BW25113 pool, dose response, OD615 (AID 635);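 note: growth measured after 20 h with compound at 37 °C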
particulars: pooled mutant strains; at 100 µM (top of the series)
Among all 1,300 compounds or so, about 40 (3%) were called active. Only a sample is shown. Results with a measured potency or affinity are listed apart.
endpointLabel: growth inhibition (%)
Lab book: enter the figure in %, no units written.

Query: Which growth inhibition value is on record for "O=C(Nc1nc(-c2ccccc2)cs1)c1cccs1" ?
Response: -1.94

Query: Now this one: "CCn1nc(-c2ccccc2)nc2c(=O)n(C)c(=O)nc1-2"
Response: 1.94

Query: Now this one: Cc1ccc(-n2c(C)cc(C3N=C(N)Nc4nc5ccccc5n43)c2C)c(C)c1 (configuration not stated)
Response: 6.51

Query: Now this one: "Cc1cc(N2CCCCC2)n2ncc(-c3ccccc3)c2n1"
Response: 1.76

Query: Now this one: "CCOC(=O)c1c(NS(=O)(=O)c2cccc(OC)c2)sc2c1CCC2"
Response: 0.74

Query: Now this one: OC(COc1ccc(Cl)c2ccccc12)CN1CCN(c2ccccn2)CC1 (configuration not stated)
Response: -3.05

Query: Now this one: CCOC(=O)c1ccc(N2C(=O)c3n[nH]c(C)c3C2c2ccc(OC)cc2OC)cc1 (configuration not stated)
Response: -0.55

Query: Now this one: "Cc1ccc(SC/C(O)=C(\C#N)c2nc3ccccc3s2)cc1"
Response: 0.79

Query: Now this one: "O=C(c1ccc2c(=O)n(C3CCCC3)c(=S)[nH]c2c1)N1CCN(C2CCCCC2)CC1"
Response: 0.27

Query: Now this one: "CCOc1ccc(N(CC(=O)Nc2cccc(Cl)c2)S(=O)(=O)c2c(C)noc2C)cc1"
Response: 2.36

Query: Now this one: "CN1/C(=C\C(=O)COc2ccc3c(c2)OCO3)C(C)(C)c2ccccc21"
Response: -6.25

Query: Now this one: "O=C(COc1ccccc1)Nc1nnc(-c2ccc(Cl)s2)o1"
Response: 2.47

Query: Now this one: "CCOC(=O)c1sc(NC(=O)CSc2n[nH]c(-c3ccccc3)n2)c(C#N)c1C"
Response: 1.14

Query: Now this one: "CCOC(=O)c1csc(Nc2nc3ccc(F)cc3s2)n1"
Response: -0.43

Query: Now this one: "COc1ccccc1N1CCN(C(=O)c2cc(-c3cccc(Cl)c3)on2)CC1"
Response: -2.98

Query: Now this one: "Cc1onc(-c2ccccc2)c1C(=O)Nc1nnc(N(C)Cc2ccccc2)s1"
Response: -4.99

Query: Now this one: "Cn1c(CSc2nc3ccccc3s2)nc2ccccc21"
Response: -7.99

Query: Now this one: "COc1ccc(S(=O)(=O)N(Cc2cccs2)C2CCCC2)cc1"
Response: 3.24

Query: Now this one: "COC(=O)c1ccc(CSc2nc3ccccc3o2)cc1"
Response: -2.69

Query: Now this one: "CCOc1cc(S(=O)(=O)n2cc(-c3ccc(F)cc3)c(N)n2)cc(OCC)c1OCC"
Response: -3.17

Query: Now this one: COCCCN1C(=O)c2[nH]nc(-c3ccccc3O)c2C1c1ccc(Cl)cc1 (configuration not stated)
Response: -4.43

Query: Now this one: Cc1ccc(CN2C(=O)NC(=O)C3(Cc4c(nc5ccccn5c4=O)N4CCCCCC43)C2=O)cc1 (configuration not stated)
Response: -2
